meta.source: patent EP4737445A1

Target: CYP1A2 (Homo sapiens, UniProt P05177)
Construct: human liver microsomes (0.25 mg/mL); from tissue; host or cells: human liver microsomes
Sequence (P05177 whole entry): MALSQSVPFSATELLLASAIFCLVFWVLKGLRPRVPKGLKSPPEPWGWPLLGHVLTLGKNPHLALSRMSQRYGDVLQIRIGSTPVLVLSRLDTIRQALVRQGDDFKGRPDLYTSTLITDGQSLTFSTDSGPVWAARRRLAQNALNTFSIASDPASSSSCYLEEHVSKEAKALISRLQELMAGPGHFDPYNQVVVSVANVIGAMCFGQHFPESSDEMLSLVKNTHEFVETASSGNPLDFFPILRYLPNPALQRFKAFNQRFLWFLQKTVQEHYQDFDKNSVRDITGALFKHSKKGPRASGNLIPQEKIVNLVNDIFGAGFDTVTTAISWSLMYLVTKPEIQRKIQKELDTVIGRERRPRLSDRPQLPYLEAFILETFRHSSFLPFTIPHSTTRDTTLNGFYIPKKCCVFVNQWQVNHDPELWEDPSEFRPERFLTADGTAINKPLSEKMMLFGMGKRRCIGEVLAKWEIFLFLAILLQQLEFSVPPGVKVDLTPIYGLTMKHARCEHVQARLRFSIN
Experiment: CYP isoenzyme activity inhibition in human liver microsomes, CYP1A2
Format: in vitro ADME
Details: 10 µM compound; human liver microsomes 0.25 mg/mL; relative to control without compound
value.kind: CYP1A2 (% activity)
Your answer should be a plain number; it is taken to be in % activity.

Sample answers from the record:
N#CC(C#N)=NNc1ccc2nc(N3CCNCC3)oc2c1 [Compound 25]: 87
Cn1c(N2C3CCC2COC3)nc2ccc(NN=C(C#N)C#N)cc21 [Compound 34]: 85.8
CC1CN(c2nc3ccc(NN=C(C#N)C#N)cc3s2)CC(C)O1 (stereo not drawn) [Compound 10]: 68.4
CN1CCN(c2nc3ccc(NN=C(C#N)C#N)cc3o2)CC1 [Compound 14]: 89.7
N#CC(C#N)=NNc1ccc2nc(N3C4CCC3COC4)oc2c1 [Compound 20]: 55.6

Returns the measured CYP1A2 (% activity) for the input compound. Input: N#CC(C#N)=NNc1ccc2nc(N3CC4CCC(C3)O4)oc2c1 [Compound 26]
79.1

And CC1COCCN1c1nc2ccc(NN=C(C#N)C#N)cc2s1 (stereo not drawn) [Compound 13] ?
83

Another compound to check: COC1CCN(c2nc3ccc(NN=C(C#N)C#N)cc3o2)CC1 [Compound 17]
83.2

Also check CC1CN(C(=O)Nc2nc3ccc(NN=C(C#N)C#N)cc3s2)CC(C)O1 (stereo not drawn) [Compound 39]
84

N#CC(C#N)=NNc1ccc2oc(N3CCOCC3)nc2c1 [Compound 3] , same question.
99.9

How about this compound: CC(C)N1CCN(c2nc3ccc(NN=C(C#N)C#N)cc3s2)CC1 [Compound 27]
95.1

Would you kindly repeat that for N#CC(C#N)=NNc1ccc2nc(N3CCNCC3)sc2c1 [Compound 24] ?
65.1

====

Target: Tau (Homo sapiens, UniProt P10636)
Construct: BiFC fluorescent-protein fragments (two complementary halves on two tau copies); expressed in transfected cells
Sequence (P10636 1-441 isoform P10636-8): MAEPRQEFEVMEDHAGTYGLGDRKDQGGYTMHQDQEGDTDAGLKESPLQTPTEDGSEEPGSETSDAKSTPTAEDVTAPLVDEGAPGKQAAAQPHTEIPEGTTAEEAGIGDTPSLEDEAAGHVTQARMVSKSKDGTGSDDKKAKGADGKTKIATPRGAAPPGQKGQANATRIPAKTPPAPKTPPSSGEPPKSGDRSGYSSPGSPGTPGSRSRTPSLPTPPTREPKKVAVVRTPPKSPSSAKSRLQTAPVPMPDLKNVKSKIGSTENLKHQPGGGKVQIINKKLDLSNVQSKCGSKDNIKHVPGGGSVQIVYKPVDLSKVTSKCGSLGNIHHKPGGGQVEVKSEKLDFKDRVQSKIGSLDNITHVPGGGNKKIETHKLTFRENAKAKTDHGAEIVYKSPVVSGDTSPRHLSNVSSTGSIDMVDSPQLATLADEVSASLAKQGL
Test: Tau aggregation inhibition in Tau-BiFC cell model (Forskolin-induced)
Assay type: cell-based
Category scheme (IC50): A: < 20 nM; B: ≥ 20 nM and < 60 nM; C: ≥ 60 nM

Worked cases, answers included:
Cn1c(N2C3CCC2COC3)nc2cc(NN=C(C#N)C#N)ccc21: A
CCn1c(N2CCOCC2)nc2cc(NN=C(C#N)C#N)ccc21: A
Cc1nc2ccc(NN=C(C#N)C#N)cc2s1 [Comparative compound 1, reference compound]: C
CC(C)N1CCN(c2nc3ccc(NN=C(C#N)C#N)cc3s2)CC1: B
N#CC(C#N)=NNc1ccc2nc(N3CCNCC3)sc2c1: C

Consider CC1COCCN1c1nc2ccc(NN=C(C#N)C#N)cc2o1 (stereo not drawn) . To which IC50 class does it belong?
B

Proceed to "CC(=O)N1CCN(c2nc3ccc(NN=C(C#N)C#N)cc3o2)CC1"
C

Can you check "N#CC(C#N)=NNc1ccc2nc(N3CCOCC3)sc2c1" next?
A

Let us now turn to "N#CC(C#N)=NNc1ccc2nc(N3CCOCC3)oc2c1"
B

Same read-out for "N#CC(C#N)=NNc1ccc2nc(N3CCCC3)oc2c1" ?
A

Request: "COC1CCN(c2nc3ccc(NN=C(C#N)C#N)cc3o2)CC1"
C

What do you get for "N#CC(C#N)=NNc1ccc2nc(N3CCNCC3)oc2c1" ?
B

How about "N#CC(C#N)=NNc1ccc2nc(N3C4CCC3COC4)sc2c1" ?
B

Further, for "CC(=O)N(N=C(C#N)C#N)c1ccc2nc(N3CCOCC3)sc2c1" ?
B
